Reported activation values for the following compounds.
molecular target: Thyrotropin-releasing hormone receptor (Homo sapiens) (UniProt P34981); test: qHTS for Small Molecule Agonists and Allosteric Enhancers of Human TRH Receptor: Primary Screen for Agonists.; further: 0% is about no effect; conditions: TRHR cells, calcium flux fluo-8, FDSS agonist mode; at 2 µM; hits give high values
Sequence (P34981 whole entry, looked up): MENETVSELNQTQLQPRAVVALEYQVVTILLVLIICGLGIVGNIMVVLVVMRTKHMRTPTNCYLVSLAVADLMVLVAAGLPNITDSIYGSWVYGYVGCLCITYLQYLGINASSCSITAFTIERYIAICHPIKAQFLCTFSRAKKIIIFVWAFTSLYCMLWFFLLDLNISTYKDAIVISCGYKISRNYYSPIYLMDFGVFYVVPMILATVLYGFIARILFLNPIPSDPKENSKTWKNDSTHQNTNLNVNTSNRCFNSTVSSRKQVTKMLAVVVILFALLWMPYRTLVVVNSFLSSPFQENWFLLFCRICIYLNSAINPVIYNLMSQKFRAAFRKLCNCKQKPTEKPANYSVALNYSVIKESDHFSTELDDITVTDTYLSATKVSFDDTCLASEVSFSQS
Out of some 360,000 compounds screened, about 650 (0.18%) were called active. The entries come from a sample that favours actives as a whole.
Please give a number only; it is taken to be in %.

compound: CCCCOc1ccc(CNC(=O)c2ccc3c(c2)N(C)C(=O)C2CCCCN32)cc1 (stereo unspecified)
quantity: activation
value-observed: -0.251

compound: Cc1ccc(NC(=O)c2oc3ccc(S(=O)(=O)N4CCCCC4)cc3c2C)cc1Cl
quantity: activation
value-observed: 1.26

compound: CCOc1ccc(NC(=O)c2cnn(-c3ccccc3)c2-n2cccc2)cc1
quantity: activation
value-observed: -2.32

compound: COc1ccc(-n2c(SCC(=O)Nc3ccc(Cl)c(C)c3)nc3n[nH]c(C)c3c2=N)cc1
quantity: activation
value-observed: 0.481

compound: COc1ccc(-n2ccn(CC(=O)Nc3ccc(C)c(C)c3)c(=O)c2=O)cc1OC
quantity: activation
value-observed: 0.851

compound: CCCCCCc1cc2cc(-c3nnc(-c4ccccc4)o3)c(=O)oc2cc1O
quantity: activation
value-observed: 185

compound: CCOc1cc(-c2nnc(SCC(=O)NC3CCCC3)nc2-c2ccc(OC)c(OCC)c2)ccc1OC
quantity: activation
value-observed: 0.306

compound: COc1cccc(-c2ccc3c(c2)S(=O)(=O)c2cccc(C(=O)O)c2C3=O)c1OC
quantity: activation
value-observed: 0.018

Query: Using the record for Cc1ccc2cccc(NC(=O)C(C)Oc3ccc(C)c(C)c3)c2n1 (stereo unspecified) , report its activation.
Result: 0.214

Query: Item: "CC1=C(c2ccc(F)cc2)S(=O)(=O)N=C1N1CCC(C(=O)NCCc2ccccc2C)CC1"
Result: 0.06

Query: Further, for "COc1cccc(C(=O)NC2CCN(C#N)CC2)c1" ?
Result: 0.979

Query: Also "Cc1ccc(CNC(=O)c2ccccc2CCc2ccccc2)cc1" ?
Result: 0.513

Query: Quick one: "Cc1cccc2c(=O)cc(CSc3ccccc3NC(=O)C(C)C)[nH]c12"
Result: 0.235

Query: Item: "CCN(CC)CCNC(=O)Cn1ncc2c3ccccc3n(Cc3ccccc3C)c2c1=O"
Result: 1.76

Cited source: PubChem BioAssay AID493084
